Where do the numbers come from? From patent US20230016112A1.

system.tested: T1, full-length CD25 (human, UniProt P01589 22-186, limits assumed)
T1 construct: The assays used soluble 'full-length CD25'; also called Hu CD25; IL-2 receptor alpha chain
T1 chain: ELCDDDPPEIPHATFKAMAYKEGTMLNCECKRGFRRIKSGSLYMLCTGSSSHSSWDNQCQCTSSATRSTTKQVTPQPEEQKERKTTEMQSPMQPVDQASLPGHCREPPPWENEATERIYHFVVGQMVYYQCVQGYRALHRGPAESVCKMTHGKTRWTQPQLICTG
assay.comment: Octet biolayer interferometry, human IgG1 against CD25
pKd: −log10 of the molar value.
parameter: pKd

[[record]]
binder = "YU392-E05 (antibody, Tested as full-length human IgG1) scFv: QVQLQESGPGLVKPSGTLSLTCTVSGGSISSSNWWSWVRQPPGKGLEWIGEIYHSGSTNYNPSLKSRVTISVDKSKNQFSLKLSSVTAADTAVYYCARGVIAAAGTYFDYWGQGTLVTVSSQAVLTQPPSASGTPGQRVTISCSGSRPNVASNSVNWYQQFPGTAPRLLIYSDNQRPSGVPDRFSGSKSGTSASLAISGLQFEDEADYYCETWDDSLRGVVFGGGTKVTVL"
parameter = "pKd"
experimental_value = 7.79

